# experimental.details: Metabolic stability in human liver microsomes assessed as parent compound remaining incubated for 10 mins in presence of NADPH
# Format: ADME, Microsome
# test.context: read-out: Stabilty
measured.quantity: remaining at 10 min (%)

smiles.string: CN(C)C1CCN(c2cccc3c2C[C@H](CN(C)[C@H]2CCCc4cccnc42)NC3)CC1
remaining at 10 min / %: 78.4
//
smiles.string: CN(C[C@H]1Cc2c(cccc2N2CCC(N)CC2)CN1)[C@H]1CCCc2cccnc21
remaining at 10 min / %: 80.8
//
smiles.string: CN(C[C@H]1Cc2c(cccc2N[C@H]2CC[C@H](N)CC2)CN1)[C@H]1CCCc2cccnc21
remaining at 10 min / %: 100
//
smiles.string: CN1CC[C@H]2CN(c3cccc4c3C[C@H](CN(C)[C@H]3CCCc5cccnc53)NC4)C[C@H]21
remaining at 10 min / %: 87.3

====

# experimental.details: Oral bioavailability in CD1 mouse at 30 mg/kg measured after 8 hrs by LC-MS/MS analysis
# Assay type: ADME, organism-based
# test.context: in vivo
measured.quantity: bioavailability (%)
Write the number in % without appending the unit.

Please give the measured bioavailability for this compound: CN1CCN(Nc2cccc3c2CC(CN(C)[C@H]2CCCc4cccnc42)NC3)CC1 (single isomer, unassigned)
24

====

# assay.system: Voltage-gated inwardly rectifying potassium channel KCNH2 (Homo sapiens)
# Sequence (Q12809 whole entry): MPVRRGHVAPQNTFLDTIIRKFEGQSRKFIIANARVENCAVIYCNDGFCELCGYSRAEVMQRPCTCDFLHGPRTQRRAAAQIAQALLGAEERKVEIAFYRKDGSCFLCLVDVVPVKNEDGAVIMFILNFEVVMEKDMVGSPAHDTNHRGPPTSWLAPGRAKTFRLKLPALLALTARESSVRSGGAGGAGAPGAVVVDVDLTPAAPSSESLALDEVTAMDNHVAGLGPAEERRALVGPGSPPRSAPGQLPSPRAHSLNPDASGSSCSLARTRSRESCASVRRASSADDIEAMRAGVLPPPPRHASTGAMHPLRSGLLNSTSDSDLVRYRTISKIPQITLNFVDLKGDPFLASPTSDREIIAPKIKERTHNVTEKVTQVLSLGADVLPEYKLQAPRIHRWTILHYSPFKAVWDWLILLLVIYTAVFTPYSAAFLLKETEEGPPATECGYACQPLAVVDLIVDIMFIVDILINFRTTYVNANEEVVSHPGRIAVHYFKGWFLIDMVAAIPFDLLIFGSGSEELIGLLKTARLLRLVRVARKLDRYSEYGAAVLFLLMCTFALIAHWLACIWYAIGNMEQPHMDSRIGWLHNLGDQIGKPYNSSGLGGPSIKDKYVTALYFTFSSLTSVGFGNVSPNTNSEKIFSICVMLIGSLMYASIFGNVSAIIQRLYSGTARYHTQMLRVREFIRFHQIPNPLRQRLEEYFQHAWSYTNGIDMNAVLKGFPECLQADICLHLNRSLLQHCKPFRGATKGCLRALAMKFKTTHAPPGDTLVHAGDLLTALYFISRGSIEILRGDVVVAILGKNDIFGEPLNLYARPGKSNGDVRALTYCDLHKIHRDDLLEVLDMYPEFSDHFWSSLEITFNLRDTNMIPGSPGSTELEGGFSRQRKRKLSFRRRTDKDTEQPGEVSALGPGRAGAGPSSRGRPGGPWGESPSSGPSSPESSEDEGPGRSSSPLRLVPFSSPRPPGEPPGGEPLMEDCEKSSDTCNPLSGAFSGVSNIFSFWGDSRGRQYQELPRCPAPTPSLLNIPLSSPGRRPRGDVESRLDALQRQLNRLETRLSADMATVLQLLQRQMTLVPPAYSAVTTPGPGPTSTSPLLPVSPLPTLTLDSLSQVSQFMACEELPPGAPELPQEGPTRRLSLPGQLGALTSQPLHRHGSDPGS
# experimental.details: Inhibition of human ERG by automated patch clamp method
measured.quantity: pIC50
// pIC50 is dimensionless: -log10 of concentration (M)

# get_value(readout='pIC50', item= CN1CCN(Nc2cccc3c2CC(CN(C)[C@H]2CCCc4cccnc42)NC3)CC1 (single isomer, unassigned) )
5.17

====

# experimental.details: Metabolic stability in mouse liver microsomes assessed as parent compound remaining incubated for 10 mins in presence of NADPH
# Assay type: ADME, Microsome
# test.context: read-out: Stabilty
measured.quantity: remaining at 10 min (%)

compound: CN(C)C1CCN(c2cccc3c2C[C@H](CN(C)[C@H]2CCCc4cccnc42)NC3)C1 (single isomer, unassigned; 37)
reported.result: 18.5

(a) CN(C[C@@H]1Cc2c(cccc2NC2CCNCC2)CN1)[C@H]1CCCc2cccnc21
(b) CN1CC[C@H]2CN(c3cccc4c3C[C@H](CN(C)[C@H]3CCCc5cccnc53)NC4)C[C@H]21
Two entries are listed, a and b . Which one carries the higher remaining at 10 min? Lab log: write the label of the selected item as the result.
b

====

# experimental.details: AUC (0 to 8 hrs) in CD-1 mouse at 30 mg/kg, po or at 3 mg/kg, iv measured up to 8 hrs by UPLC-MS/MS analysis
# Assay type: ADME, organism-based
# Parameters: dose 30 mg/kg, time <=8
# test.context: in vivo
measured.quantity: AUC(0-t) (ng·h/mL)
Quick note: give the figure in ng·h/mL, leave out the unit.

What AUC(0-t) value was documented for this compound, NCCCCN(Cc1nc2ccccc2[nH]1)[C@H]1CCCc2cccnc21 ?
101

====

# assay.system: C-X-C chemokine receptor type 4 (Homo sapiens)
# Sequence (P61073 whole entry): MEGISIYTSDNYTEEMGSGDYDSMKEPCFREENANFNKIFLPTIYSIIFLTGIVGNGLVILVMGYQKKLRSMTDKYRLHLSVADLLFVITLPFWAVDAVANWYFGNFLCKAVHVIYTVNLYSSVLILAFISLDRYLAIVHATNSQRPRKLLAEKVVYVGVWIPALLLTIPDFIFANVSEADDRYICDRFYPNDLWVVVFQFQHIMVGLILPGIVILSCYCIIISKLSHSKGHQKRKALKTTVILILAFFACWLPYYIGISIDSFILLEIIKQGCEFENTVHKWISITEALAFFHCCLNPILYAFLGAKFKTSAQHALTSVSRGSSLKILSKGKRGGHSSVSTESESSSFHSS
# experimental.details: Antagonist activity at CXCR4 receptor in human CCRF-CEM cells assessed as inhibition of SDF-1alpha-induced calcium release preincubated for 25 mins followed by SDF-1alpha addition and monitered for 90 sec
pIC50: −log10 of the molar value.
measured.quantity: pIC50

molecule: CN(C)C1CCN(c2cccc3c2C[C@H](CN(C)[C@H]2CCCc4cccnc42)NC3)C1 (single isomer, unassigned; 36)
measured.quantity: pIC50
reported.result: 7.98
//
molecule: CN(C)C1CCN(c2cccc3c2C[C@H](CN(C)[C@H]2CCCc4cccnc42)NC3)C1 (single isomer, unassigned; 37)
measured.quantity: pIC50
reported.result: 7.96
//
molecule: CN1CC[C@H]2CN(c3cccc4c3C[C@H](CN(C)[C@H]3CCCc5cccnc53)NC4)C[C@H]21
measured.quantity: pIC50
reported.result: 7.94
//
molecule: CN1C[C@@H]2CN(c3cccc4c3C[C@H](CN(C)[C@H]3CCCc5cccnc53)NC4)C[C@@H]2C1
measured.quantity: pIC50
reported.result: 8.02

(P) CN(C[C@@H]1Cc2c(cccc2NC2CCNCC2)CN1)[C@H]1CCCc2cccnc21
(Q) CN(C[C@H]1Cc2c(cccc2N2C[C@H]3CCN(C)[C@H]3C2)CN1)[C@H]1CCCc2cccnc21
(R) CN(C[C@H]1Cc2c(cccc2N2C[C@H]3CNC[C@H]3C2)CN1)[C@H]1CCCc2cccnc21
// ascending sort on recorded pIC50 Give the labels in the order specified.
P, Q, R
